Target: Cytochrome P450 3A4 (Homo sapiens)
Assay: Cytochrome panel assay with activity outcomes
Settings: recombinant CYP, pro-luciferin dealkylation, luminescence, p450-cyp3a4; series mostly up to 57.1 µM
Method: The P450 gene superfamily is involved in the metabolism and clearance of xenobiotics. This assay used various human CYP P450 isozymes to measure the dealkylation of various pro-luciferin substrates to luciferin. The luciferin is then measured by luminescence after the addition of a luciferase detection reagent. […] Inhibitors and some substrates limit the production of luciferin, and decrease measured luminescence. […] 8, Detection, 1 sec, ViewLux luminescent read […]
The campaign covered roughly 16,000 compounds. About 5,100 (32%) were called active. Not shown: some 25% with an inconclusive outcome. Calls follow the shape of the dose curve; as a rule, active = well fitted curve in the direction sought with a large enough effect; inconclusive = small, poorly fitted or top-dose-only effect, or effect the other way; inactive = no such curve, though single readings can be large or run the other way. The list shows a part of the results.
Please answer using one outcome listed in 1.0 for active, 0.0 for inactive

[
  {
    "compound": "C=CCN1C(=O)CN=C1Nc1ccccc1",
    "class": 0.0
  },
  {
    "compound": "CC(=O)N1CCC[C@@]2(CCN(c3ncccn3)C2)C1",
    "class": 0.0
  }
]

Recorded call for COC(=O)C(NNc1ccccc1)(NC(=O)c1ccccc1F)C(F)(F)F (configuration not stated) ?
1.0

Recorded call for `CCc1ccc(/C=C\C(=O)N2CCc3ccccc3C2)cc1` ?
0.0

Recorded call for `O=C(CCCN1C(=O)c2cccc3cccc(c23)C1=O)N1CCc2ccccc2C1` ?
1.0

Recorded call for `O=C(c1ccco1)N1CCC2(CC1)CN(c1cccc(-c3ccccc3)c1)C2` ?
0.0

Recorded call for Cc1ccc(NC(=O)N(Cc2ccco2)C(C)c2ccco2)cc1C (configuration not stated) ?
1.0

Recorded call for `O=C(c1ccncc1)N1CCC2(CC1)CN(c1cccc(-c3ccccc3)c1)C2` ?
1.0

Recorded call for `CN1CCN(NC(=O)c2ccccc2F)CC1` ?
0.0

Recorded call for `O=C(c1cnccn1)N1CCC[C@@]2(CCN(c3ccccc3)C2)C1` ?
1.0
